Entry source: ChEMBL document CHEMBL1139933

biological target: UniProt:O43451; experiment: Inhibition of alpha-glucosidase at 100 uM
Sequence (O43451 whole entry, looked up): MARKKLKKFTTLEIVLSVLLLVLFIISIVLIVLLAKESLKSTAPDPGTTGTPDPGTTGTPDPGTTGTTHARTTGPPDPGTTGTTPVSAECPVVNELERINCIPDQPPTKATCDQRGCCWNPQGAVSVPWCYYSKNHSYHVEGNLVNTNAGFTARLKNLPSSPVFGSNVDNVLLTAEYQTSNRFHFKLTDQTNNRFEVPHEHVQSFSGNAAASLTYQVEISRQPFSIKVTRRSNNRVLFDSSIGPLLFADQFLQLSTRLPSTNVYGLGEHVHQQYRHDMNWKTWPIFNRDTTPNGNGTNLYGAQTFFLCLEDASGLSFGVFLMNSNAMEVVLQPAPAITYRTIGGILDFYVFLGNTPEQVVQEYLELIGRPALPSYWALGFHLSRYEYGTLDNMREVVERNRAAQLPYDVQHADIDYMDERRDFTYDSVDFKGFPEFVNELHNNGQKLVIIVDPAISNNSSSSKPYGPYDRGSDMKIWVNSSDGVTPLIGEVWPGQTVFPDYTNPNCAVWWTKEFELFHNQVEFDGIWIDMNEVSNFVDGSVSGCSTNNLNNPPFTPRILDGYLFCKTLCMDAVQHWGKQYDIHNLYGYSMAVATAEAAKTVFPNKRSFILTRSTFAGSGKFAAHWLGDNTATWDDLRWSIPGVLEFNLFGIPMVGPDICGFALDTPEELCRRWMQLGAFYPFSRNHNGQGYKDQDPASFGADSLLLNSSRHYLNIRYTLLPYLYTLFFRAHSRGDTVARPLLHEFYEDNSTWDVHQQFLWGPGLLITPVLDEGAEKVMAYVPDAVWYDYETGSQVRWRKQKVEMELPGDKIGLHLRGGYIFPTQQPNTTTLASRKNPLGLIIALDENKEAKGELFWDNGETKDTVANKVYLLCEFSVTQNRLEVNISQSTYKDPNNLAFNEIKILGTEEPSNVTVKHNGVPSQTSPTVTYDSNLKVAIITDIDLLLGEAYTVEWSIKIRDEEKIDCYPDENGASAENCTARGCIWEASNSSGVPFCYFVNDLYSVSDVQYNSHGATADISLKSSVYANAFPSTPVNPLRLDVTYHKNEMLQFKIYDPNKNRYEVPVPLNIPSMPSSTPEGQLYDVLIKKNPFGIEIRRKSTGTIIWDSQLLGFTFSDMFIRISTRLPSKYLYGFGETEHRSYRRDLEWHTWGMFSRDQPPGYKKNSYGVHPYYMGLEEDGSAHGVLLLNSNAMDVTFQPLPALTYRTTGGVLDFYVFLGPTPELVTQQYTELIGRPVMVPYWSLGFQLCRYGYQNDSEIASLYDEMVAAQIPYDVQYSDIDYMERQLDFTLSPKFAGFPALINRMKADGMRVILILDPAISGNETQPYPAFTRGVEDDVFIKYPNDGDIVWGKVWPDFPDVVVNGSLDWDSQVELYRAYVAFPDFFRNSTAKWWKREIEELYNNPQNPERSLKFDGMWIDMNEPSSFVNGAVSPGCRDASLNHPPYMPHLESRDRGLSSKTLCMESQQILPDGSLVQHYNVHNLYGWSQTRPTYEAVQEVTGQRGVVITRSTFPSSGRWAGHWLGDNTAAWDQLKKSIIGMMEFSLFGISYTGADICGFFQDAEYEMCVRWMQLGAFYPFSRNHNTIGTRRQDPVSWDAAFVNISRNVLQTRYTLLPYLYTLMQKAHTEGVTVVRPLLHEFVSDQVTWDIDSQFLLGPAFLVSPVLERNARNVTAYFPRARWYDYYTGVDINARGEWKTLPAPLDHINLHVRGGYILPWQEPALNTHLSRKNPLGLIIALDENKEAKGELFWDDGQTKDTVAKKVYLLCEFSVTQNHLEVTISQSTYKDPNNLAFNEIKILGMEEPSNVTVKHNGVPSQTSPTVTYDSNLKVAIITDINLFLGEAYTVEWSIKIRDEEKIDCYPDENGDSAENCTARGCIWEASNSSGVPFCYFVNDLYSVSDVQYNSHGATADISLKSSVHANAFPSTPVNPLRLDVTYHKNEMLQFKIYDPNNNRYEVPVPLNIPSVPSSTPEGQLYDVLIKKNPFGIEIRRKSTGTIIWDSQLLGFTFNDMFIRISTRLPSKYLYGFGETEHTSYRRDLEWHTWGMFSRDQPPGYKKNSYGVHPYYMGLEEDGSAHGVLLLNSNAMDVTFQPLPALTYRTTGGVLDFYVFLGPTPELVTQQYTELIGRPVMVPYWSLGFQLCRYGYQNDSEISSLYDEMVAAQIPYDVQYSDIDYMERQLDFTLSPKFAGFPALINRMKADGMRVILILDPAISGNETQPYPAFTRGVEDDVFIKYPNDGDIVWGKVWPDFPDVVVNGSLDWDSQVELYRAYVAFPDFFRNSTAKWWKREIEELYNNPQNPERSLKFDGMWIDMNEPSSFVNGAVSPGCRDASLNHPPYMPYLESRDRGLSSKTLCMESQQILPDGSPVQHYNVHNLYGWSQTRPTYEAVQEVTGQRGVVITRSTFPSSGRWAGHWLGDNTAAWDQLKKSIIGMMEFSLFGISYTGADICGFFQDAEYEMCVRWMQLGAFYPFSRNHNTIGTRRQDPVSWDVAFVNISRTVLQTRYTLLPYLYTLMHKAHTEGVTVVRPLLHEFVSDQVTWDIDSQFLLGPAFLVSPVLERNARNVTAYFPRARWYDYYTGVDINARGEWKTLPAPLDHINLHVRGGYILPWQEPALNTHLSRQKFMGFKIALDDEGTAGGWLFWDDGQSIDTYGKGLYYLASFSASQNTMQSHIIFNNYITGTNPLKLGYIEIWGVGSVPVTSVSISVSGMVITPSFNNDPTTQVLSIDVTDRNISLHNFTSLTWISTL
Provide the recorded inhibition for the entries that follow.
Give bare numbers, in %.

Solved cases below.
INSERT INTO measurements (molecule, measured_number) VALUES
  ('C=C1CC[C@@H]2[C@](C)(CO)[C@H](O)CC[C@@]2(C)[C@@H]1/C=C/C1=CC(=C/c2ccco2)/OC1=O', 49.6),
  ('C=C1CC[C@@H]2[C@]3(C)COCO[C@@H]3CC[C@@]2(C)[C@@H]1CC(O)C1=CCOC1=O (stereo partly drawn)', 6.9),
  ('C=C1CC[C@@H]2[C@](C)(COC(=O)c3cccnc3)[C@H](OC(=O)c3cccnc3)CC[C@@]2(C)[C@@H]1/C=C/C1=CC(=C\c2ccc(Cl)cc2)/OC1=O', 100),
  ('C=C1CC[C@@H]2[C@](C)(COC(=O)c3cccnc3)[C@H](OC(=O)c3cccnc3)CC[C@@]2(C)[C@@H]1/C=C/C1=CC(=C\c2cccc(Br)c2)/OC1=O', 100),
  ('C=C1CC[C@@H]2[C@](C)(CO)[C@H](O)CC[C@@]2(C)[C@@H]1/C=C/C1=CC(=C/c2ccccc2)/OC1=O', 84.3);

For every item in the list below, what is its measured inhibition?
1. C=C1CC[C@@H]2[C@](C)(CO)[C@H](O)CC[C@@]2(C)[C@@H]1/C=C/C1=CC(=C/c2ccc3c(c2)OCO3)/OC1=O
2. C=C1CC[C@@H]2[C@](C)(COC(=O)c3cccnc3)[C@H](OC(=O)c3cccnc3)CC[C@@]2(C)[C@@H]1/C=C/C1=CC(=C\c2ccc(OC)cc2)/OC1=O
3. C=C1CC[C@@H]2[C@](C)(COC(=O)c3cccnc3)[C@H](OC(=O)c3cccnc3)CC[C@@]2(C)[C@@H]1/C=C/C1=CC(=C\C(C)=C\CCC/C=C/C)/OC1=O

output:
59.3
100
68.9

For every item in the list below, what is its measured inhibition?
1. C=C1CC[C@@H]2[C@](C)(CO)[C@H](O)CC[C@@]2(C)[C@@H]1/C=C/C1=CC(=C/c2ccc(N(C)C)cc2)/OC1=O
2. C=C1CC[C@@H]2[C@](C)(COC(=O)c3cccnc3)[C@H](OC(=O)c3cccnc3)CC[C@@]2(C)[C@@H]1/C=C/C1=CC(=C\c2ccc(N(C)C)cc2)/OC1=O

output:
[60.6, 74.8]

For every item in the list below, what is its measured inhibition?
1. C=C1CC[C@@H]2[C@](C)(COC(=O)c3cccnc3)[C@H](OC(=O)c3cccnc3)CC[C@@]2(C)[C@@H]1/C=C/C1=CC(=C/c2ccco2)/OC1=O
2. C=C1CC[C@@H]2[C@](C)(CO)[C@H](O)CC[C@@]2(C)[C@@H]1/C=C/C1=CC(=C/c2cc(OC)c(OC)cc2OC)/OC1=O
3. C=C1CC[C@@H]2[C@](C)(COC(=O)c3cccnc3)[C@H](OC(=O)c3cccnc3)CC[C@@]2(C)[C@@H]1/C=C/C1=CC(=C\c2ccccc2)/OC1=O

output:
1: 95.9; 2: 57.8; 3: 100
